The reported measurements were obtained from patent EP4048276B1.

method_summary: Solubility study of ticagrelor drug substance in water and pH media
Format: physicochemical
recorded_conditions: water; read-out: Average solubility, Water

{"structure_string": "CCCSc1nc(N[C@@H]2C[C@H]2c2ccc(F)c(F)c2)c2nnn([C@@H]3C[C@H](OCCO)[C@@H](O)[C@H]3O)c2n1", "solubility": "6 µg/mL"}

* * *

method_summary: Solubility study of ticagrelor drug substance in water and pH media
Assay type: physicochemical
recorded_conditions: pH 4.5 medium, pH 4.5, aqueous buffer; read-out: Average solubility, pH: 4.5
Procedure: Moreover, this low aqueous solubility of ticagrelor leads to an increase of relevance of particle size. Solubility studies in human intestinal fluids, bulk-tapped density, compressibility index, Hausner ratio, flowability studies of drug substance were performed prior to beginning of the development process of pharmaceutical drug product.

{"structure_string": "CCCSc1nc(N[C@@H]2C[C@H]2c2ccc(F)c(F)c2)c2nnn([C@@H]3C[C@H](OCCO)[C@@H](O)[C@H]3O)c2n1", "solubility": "6 µg/mL"}
